- Test system: HepG2
- EXPERIMENT: GSK_TCMDC: Percent inhibition of human HepG2 cell line. Test compounds present at 10uM.
- Assay type: functional
QUANTITY: Inhibition (%)

compound=CN1CCCc2ccc(NC(=O)c3cc(-c4ccc(Cl)cc4)cs3)cc2C1.O=C(O)C(F)(F)F measurement_units=% value_observed=35
compound=Cn1cncc1C(=O)Nc1cccc(-c2ccc(-c3nc4ccccc4[nH]3)s2)c1 measurement_units=% value_observed=0
compound=CNc1ccc(CNCc2ccc(-c3ccc(-c4nc5cc(C(F)(F)F)ccc5[nH]4)s3)cc2)cc1.O=C(O)C(F)(F)F measurement_units=% value_observed=44
compound=COc1ccc(-n2nc(C)cc2C(=O)NCc2ccc(-c3c(C)noc3C)cc2)cc1 measurement_units=% value_observed=3
compound=Cc1nc(-c2ccncc2)sc1C(=O)Nc1ccc(Cl)cc1C(=O)Nc1ccc(Cl)cc1 measurement_units=% value_observed=2
compound=O=C(NC1CCN(Cc2ccccc2)CC1)c1ccc(-c2nc3cc(Cl)c(Cl)cc3[nH]2)c(F)c1 measurement_units=% value_observed=4
compound="CCCC1CCNC(C(O)c2ccnc3ccc(OC)cc23)C1.Cl (centres undefined)" measurement_units=% value_observed=0
compound="Cc1ccccc1C(=O)NC(NC(=S)Nc1ccc([N+](=O)[O-])cc1)C(Cl)(Cl)Cl (centres undefined)" measurement_units=% value_observed=0
compound=CCOc1ccc2c(c1)N(C(=O)C=Cc1ccccc1)C(C)(C)c1ssc(=S)c1-2 measurement_units=% value_observed=3

* * *

- System: Plasmodium falciparum
- EXPERIMENT: GSK_TCMDC: Inhibition of Plasmodium falciparum Dd2 in whole red blood cells, using parasite LDH activity as an index of growth. Test compounds present at 2uM
- Format: functional
molecules and their reported Inhibition
QUANTITY: Inhibition (%)

molecule=COc1ccc2ncc(F)c(CCN3CCC(NCc4ccc5c(c4)CCO5)CC3)c2n1.Cl tested_target="Plasmodium falciparum" value_observed=30
molecule="O=c1cc(NCCCNC(c2ccccc2)c2ccc(Cl)c(Cl)c2)[nH]c2ccccc12 (stereo not drawn)" tested_target="Plasmodium falciparum" value_observed=94
molecule=COc1ccc(CN2CCC(NCc3cccc(C(F)(F)F)c3)CC2)cc1.O=C(O)C(F)(F)F tested_target="Plasmodium falciparum" value_observed=8
molecule=O=C(Nc1ccc(Cl)cc1)c1ccc(CN2CCCN(Cc3ccsc3)CC2)cc1.O=C(O)C(F)(F)F tested_target="Plasmodium falciparum" value_observed=1
molecule=O=[N+]([O-])c1cccc(/C=N/Nc2ccnc3cc(F)ccc23)c1 tested_target="Plasmodium falciparum" value_observed=100
molecule=COc1ccc(-c2cnc3[nH]cc(-c4ccc(C(=O)O)cc4)c3c2)cn1.O=C(O)C(F)(F)F tested_target="Plasmodium falciparum" value_observed=99
molecule=Cc1[nH]c(C)c(-c2ccc(-c3ccc(C(F)(F)F)cc3C(F)(F)F)nc2)c(=O)c1Br tested_target="Plasmodium falciparum" value_observed=97
molecule=CN1C(C)(C)CC(NC(=O)c2ccc(-c3nc4cc(Cl)c(Cl)cc4[nH]3)cc2)CC1(C)C tested_target="Plasmodium falciparum" value_observed=97
molecule=CN(C)c1ccc(-c2ccc(C(=O)NC3CCN(Cc4ccc(F)cc4)CC3)s2)cc1.O=C(O)C(F)(F)F tested_target="Plasmodium falciparum" value_observed=19
molecule=O=C(Nc1cccc(-c2csc(NC(=O)c3ccc4ccccc4c3)n2)c1)c1ccc2ccccc2c1 tested_target="Plasmodium falciparum" value_observed=35
molecule=CCc1cn(C)c2c(N3CCCC3=O)cc(C(=O)N[C@@H](Cc3ccccc3)[C@H](O)CNC(C)(C)CCCC(C)C)cc12 tested_target="Plasmodium falciparum" value_observed=98
molecule="C=CCOC(=O)N1CCC(CNCc2ccc(-c3cccc(-c4nc5cccc(C)c5[nH]4)c3)cc2)C1.O=C(O)C(F)(F)F (stereo not drawn)" tested_target="Plasmodium falciparum" value_observed=99
molecule=COc1cc(C)nc2ccc(NC(=O)c3ccc(C(=O)Nc4ccc5nc(C)cc(OC)c5c4)cc3)cc12 tested_target="Plasmodium falciparum" value_observed=72
molecule=Cc1nc2nc(N)nc(N)c2c(C)c1Cc1cccc(C(N)=O)c1.Cl tested_target="Plasmodium falciparum" value_observed=0
molecule="O=C(NC1CCCCN(Cc2ccc3c(c2)OCCO3)C1)c1cc(-c2ccccc2F)cs1.O=C(O)C(F)(F)F (stereo not drawn)" tested_target="Plasmodium falciparum" value_observed=19
molecule=Cc1cc(N[C@@H](CC(C)C)C(=O)Nc2ccccc2)nc(NCC2CCCCC2)n1.O=C(O)C(F)(F)F tested_target="Plasmodium falciparum" value_observed=95
molecule=COc1ccc(-c2nc(NC(=O)Cc3ccc(OC)c(OC)c3)sc2C)cc1 tested_target="Plasmodium falciparum" value_observed=22
molecule=Cc1cccc2nc(-c3ccc(-c4ccc(NC(=O)Nc5ccc(Cl)cc5)cc4)cc3)[nH]c12 tested_target="Plasmodium falciparum" value_observed=100
